Target: human ether-à-go-go-related gene (hERG) potassium channel (human, UniProt Q12809);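 note: peak tail current of the secondary pulse compared with the same well before compound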
Sequence (Q12809 whole entry, looked up): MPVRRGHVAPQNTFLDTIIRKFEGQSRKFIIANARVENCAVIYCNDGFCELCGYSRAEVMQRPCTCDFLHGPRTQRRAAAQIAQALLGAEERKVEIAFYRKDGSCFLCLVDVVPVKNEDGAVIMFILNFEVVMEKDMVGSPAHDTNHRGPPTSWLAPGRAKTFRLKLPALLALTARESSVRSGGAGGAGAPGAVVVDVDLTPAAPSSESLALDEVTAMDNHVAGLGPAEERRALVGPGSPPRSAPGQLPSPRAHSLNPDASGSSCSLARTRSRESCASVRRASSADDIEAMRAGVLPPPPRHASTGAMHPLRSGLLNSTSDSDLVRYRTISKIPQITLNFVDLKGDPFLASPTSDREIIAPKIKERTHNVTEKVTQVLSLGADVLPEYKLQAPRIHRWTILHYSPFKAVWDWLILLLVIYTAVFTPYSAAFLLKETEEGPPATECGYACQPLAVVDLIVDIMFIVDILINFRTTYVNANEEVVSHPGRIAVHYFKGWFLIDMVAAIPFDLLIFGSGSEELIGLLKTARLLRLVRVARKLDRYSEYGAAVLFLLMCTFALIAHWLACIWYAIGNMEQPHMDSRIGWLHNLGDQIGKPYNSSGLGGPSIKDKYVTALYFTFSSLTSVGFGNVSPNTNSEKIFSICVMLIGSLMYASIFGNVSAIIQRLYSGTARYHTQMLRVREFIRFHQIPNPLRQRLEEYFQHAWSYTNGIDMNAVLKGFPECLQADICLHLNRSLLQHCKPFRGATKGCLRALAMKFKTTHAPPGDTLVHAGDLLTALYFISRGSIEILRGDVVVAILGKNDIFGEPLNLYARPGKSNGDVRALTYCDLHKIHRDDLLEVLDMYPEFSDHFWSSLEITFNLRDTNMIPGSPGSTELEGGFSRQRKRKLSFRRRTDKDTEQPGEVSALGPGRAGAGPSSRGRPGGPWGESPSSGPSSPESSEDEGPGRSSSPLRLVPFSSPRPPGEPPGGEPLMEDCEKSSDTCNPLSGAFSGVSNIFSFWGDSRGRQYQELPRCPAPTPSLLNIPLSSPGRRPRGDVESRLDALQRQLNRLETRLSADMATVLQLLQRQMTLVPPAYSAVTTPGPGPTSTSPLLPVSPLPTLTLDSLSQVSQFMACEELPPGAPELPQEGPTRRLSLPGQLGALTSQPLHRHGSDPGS
Assay: primary screen, population patch clamp on CHO cells stably expressing hERG; higher = less effect of the substance
Screen size: about 310,000 compounds; about 14,000 (4.5%) showed an effect of 50% or more. The effect is printed as a negative number. Many of the other results were omitted from the sample, so strong results are more common in it than they were.
measured_parameter: hERG current change (%, negative = inhibition) at 10uM (%)

| compound | measured_value |
| --- | --- |
| COc1ccc(C(=O)NCCNc2ccc([N+](=O)[O-])cc2)cc1OC | -1.31 |
| COC(=O)c1ccc(/C=N\NC(=O)CC(=O)NCCc2ccccc2)cc1 | 19.8 |
| CN(C)CCCN=Cc1c(O)n(CCc2ccccc2)c(=O)[nH]c1=O | -0.99 |
| CCC(=NCc1ccccc1)c1c(C(F)(F)F)[nH]n(-c2nc3ccccc3s2)c1=O | 12.6 |
| COc1ccc(CNC(=O)Cn2nnc(-c3ccc(NC(=O)C4CCCCC4)cc3)n2)cc1 | 14 |
| C/C(=N/NC(=O)c1cccs1)c1c(C)[nH]n(-c2nc3ccccc3s2)c1=O | 7.38 |
| O=C(Nc1ccccc1C(=O)Nc1ccncc1)c1ccc([N+](=O)[O-])cc1 | -4.77 |
| O=[N+]([O-])c1ccc(NCc2ccncc2)cc1 | -3.55 |
| O=C(Cc1ccccc1)NCCSCc1ccc(Cl)cc1 | -9.5 |
| O=c1c(C=NCCCn2ccnc2)c(-c2ccccc2)[nH]n1-c1nc2ccccc2s1 | -71.4 |
| O=C(CCNc1ccc(Cc2ccncc2)cc1)c1ccc([N+](=O)[O-])cc1 | -56.8 |
| CN(C(=O)CSc1nnnn1-c1ccc(O)cc1)C1CCS(=O)(=O)C1 (stereo not drawn) | 14.8 |
